- target_entity: Orexin type 1 (OX1R) receptor (Homo sapiens)
- assay_name: In vitro orexin antagonism assay: intracellular calcium measurement (FLIPR), orexin-A 3 nM as agonist
- protocol_conditions: first value of IC50/Kb cell
attribute_measured: IC50 (nM)

Sample records with IC50:
| molecule | target_entity | readout_value |
| --- | --- | --- |
| O=C(c1nc2ccccn2c1-c1ccccc1)N1CCC[C@H]1Cc1nc(-c2ccc(F)cn2)no1 [Example 127] | Orexin type 1 (OX1R) receptor (Homo sapiens) | 5 |
| O=C(c1c(-c2ccccn2)nn2ccccc12)N1CCC[C@H]1Cc1nc(-c2ccccn2)no1 [Example 156] | Orexin type 1 (OX1R) receptor (Homo sapiens) | 23 |
| O=C(c1c(-c2ccccc2)nn2cccnc12)N1CCC[C@H]1Cn1ccc(-c2ccccn2)n1 [Example 140] | Orexin type 1 (OX1R) receptor (Homo sapiens) | 4 |
| O=C(c1nc2n(c1-c1ccccn1)CCOC2)N1CCC[C@H]1Cn1cc(-c2ccc(F)cn2)cn1 [Example 218] | Orexin type 1 (OX1R) receptor (Homo sapiens) | 120 |
| O=C(c1nn2ccccc2c1-c1ccccn1)N1CCC[C@H]1Cc1nc(-c2ccccn2)no1 [Example 175] | Orexin type 1 (OX1R) receptor (Homo sapiens) | 11 |
| O=C(c1c(-c2ccc(F)cc2)nn2ccccc12)N1CCC[C@H]1Cn1ccc(-c2ccccc2)n1 [Example 44] | Orexin type 1 (OX1R) receptor (Homo sapiens) | 5 |

[P] CCc1cnc(NC[C@@H]2CCCN2C(=O)c2c(-c3ccccc3)nn3ccccc23)nc1 [Example 15]
[Q] O=C(c1c(-c2ncccn2)nn2ccccc12)N1CCC[C@H]1Cn1ccc(-c2ccccn2)n1 [Example 138]
[R] O=C(c1nc2ccccn2c1-c1ccccc1)N1CCC[C@H]1Cn1cc(-c2ccccn2)cn1 [Example 118]
In this exercise, place the 3 molecules in ascending sequence of their recorded IC50. Order the labels as requested and list them.
R, Q, P
(R: 5 nM, Q: 9 nM, P: 180 nM)

[a] O=C(c1c(-c2ccc(F)cc2)nn2ccccc12)N1CCC[C@H]1CNc1ccc(C(F)(F)F)cn1 [Example 42]
[b] O=C(c1c(-c2ccccc2)nc2ccc(F)cn12)N1CCC[C@H]1COc1ccc(C(F)(F)F)cn1 [Example 51]
Parameter metric = IC50. Return the lower-valued option from a and b . When you have decided, please share the label of that item.
a

====

- target_entity: Orexin type 1 (OX1R) receptor (Homo sapiens, UniProt O43613)
- Construct: expressed in transfected cells; host or cells: CHO cells (G418 selection)
- Sequence (O43613 1-425): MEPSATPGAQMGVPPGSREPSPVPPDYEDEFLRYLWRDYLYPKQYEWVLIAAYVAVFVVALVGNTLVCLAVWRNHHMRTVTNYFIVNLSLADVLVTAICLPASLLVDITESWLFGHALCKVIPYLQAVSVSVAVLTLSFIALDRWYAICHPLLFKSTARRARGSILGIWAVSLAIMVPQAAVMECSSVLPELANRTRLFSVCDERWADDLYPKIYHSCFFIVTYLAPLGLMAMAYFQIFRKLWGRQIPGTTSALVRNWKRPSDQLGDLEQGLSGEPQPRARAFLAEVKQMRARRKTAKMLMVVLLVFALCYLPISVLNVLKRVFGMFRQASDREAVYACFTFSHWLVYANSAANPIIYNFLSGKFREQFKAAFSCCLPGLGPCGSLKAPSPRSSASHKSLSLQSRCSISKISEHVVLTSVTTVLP
- assay_name: In vitro orexin antagonism assay: intracellular calcium measurement (FLIPR), orexin-A 3 nM as agonist
- Assay type: cell-based
- protocol_conditions: second value of IC50/Kb cell
attribute_measured: Kb (nM)

Sample records with Kb:
| compound | target_entity | readout_value |
| --- | --- | --- |
| O=C(c1nn2c(c1-c1ccccn1)COCC2)N1CCC[C@H]1Cn1ccc(-c2ccccn2)n1 [Example 211] | Orexin type 1 (OX1R) receptor (Homo sapiens, UniProt O43613) | 4 |
| O=C(c1c(-c2ccccc2)nn2ccccc12)N1[C@@H]2CC[C@@H](C2)[C@H]1COc1ccc(C(F)(F)F)cn1 [Example 88] | Orexin type 1 (OX1R) receptor (Homo sapiens, UniProt O43613) | 8 |
| O=C(c1c(-c2ncccn2)nn2ccccc12)N1CCC[C@H]1COc1ccc(C(F)(F)F)cn1 [Example 191] | Orexin type 1 (OX1R) receptor (Homo sapiens, UniProt O43613) | 10 |

[I] O=C(c1c(-c2ccccc2F)nn2ccccc12)N1CCC[C@H]1COc1ccc(C(F)(F)F)cn1 [Example 64]
[II] C[C@@]1(COc2ccc(C(F)(F)F)cn2)CCCN1C(=O)c1c(-c2ccccc2)nn2ccccc12 [Example 151]
Please tell me which of the two, I or II , has the higher reported Kb value. When you have decided, please share the label of that item.
II

[A] O=C(c1nn2cccnc2c1-c1ccccn1)N1CCC[C@H]1Cn1ccc(-c2ccc(F)cn2)n1 [Example 193]
[B] O=C(c1nn2c(c1-c1ccccc1)OCCC2)N1CCC[C@H]1COc1ccc(C(F)(F)F)cn1 [Example 142]
Please tell me which of the two, A or B , has the higher reported Kb value. When you have decided, please share the label of that item.
A
(A: 3 nM, B: 1 nM)

[1] O=C(c1nc2ccccn2c1-c1ccccc1)N1CCC[C@H]1Cc1nc(-c2ccc(F)cn2)no1 [Example 127]
[2] O=C(c1c(-c2ccccc2F)nn2ccccc12)N1[C@H](Cn2ccc(-c3ccc(F)cn3)n2)C[C@@H]2C[C@@H]21 [Example 107]
[3] C[C@@]1(COc2ccc(C(F)(F)F)cn2)CCCN1C(=O)c1nn2ccccc2c1-c1ccccc1 [Example 143]
[4] C[C@@]1(COc2cnc(C(F)(F)F)cn2)CCCN1C(=O)c1nn2ccccc2c1-c1ccccc1 [Example 170]
# rank_down: sort by Kb, max first Order the labels as requested and list them.
4, 3, 2, 1

[P] [2H]C1([2H])CC[C@@]([2H])(Cn2ccc(-c3ccc(F)cc3)n2)N1C(=O)c1c(-c2ncccn2)nn2ccccc12 [Example 178]
[Q] O=C(c1c(-c2ccccc2)nn2c1COCC2)N1[C@@H]2CC[C@@H](C2)[C@H]1COc1ccc(C(F)(F)F)cn1 [Example 87]
Parameter metric = Kb. Return the lower-valued option from P and Q . When you have decided, please share the label of that item.
P
(P: 0.8 nM, Q: 49 nM)

This collection of values is drawn from patent US20260070922A1.
